Test summary: solvent given as SMILES
Study conditions: in CC(=O)N(C)C
Exercise: for every item that follows, state its recorded solvation free energy, 298 K.
Give bare numbers, in kcal/mol.

Prompt: Find the measured solvation free energy, 298 K of CCO and report it.
Completion: -5.24

Prompt: Find the measured solvation free energy, 298 K of CC(C)=O and report it.
Completion: -3.95

Prompt: Find the measured solvation free energy, 298 K of CC(C)C(C)C(C)C and report it.
Completion: -3.7

Prompt: Find the measured solvation free energy, 298 K of C=CC(C)C and report it.
Completion: -2.13

Prompt: Find the measured solvation free energy, 298 K of CCC(C)O (stereo not drawn) and report it.
Completion: -5.89

Provide solvation free energy, 298 K for all items below, preserving their order.
1. c1ccc2cc3ccccc3cc2c1
2. CC=CC

Completion:
1. -11.5
2. -2.17

Provide solvation free energy, 298 K for all items below, preserving their order.
1. CC#N
2. CI
3. CCCCCCCCCCCCCCCCCCCCCCC

Completion:
1: -4.8; 2: -3.63; 3: -15.7

Provide solvation free energy, 298 K for all items below, preserving their order.
1. CCOCC
2. CCCCCCCCCCCCCCCCCCC
3. CCCCCCC

Completion:
1. -2.81
2. -12.9
3. -3.36

Provide solvation free energy, 298 K for all items below, preserving their order.
1. CC(C)CCC(C)C
2. C[N+](=O)[O-]
3. CC=C(C)C
4. CCc1ccccc1

Completion:
1: -3.54; 2: -5.52; 3: -2.58; 4: -5.46

Prompt: Find the measured solvation free energy, 298 K of CCCCCCCCC and report it.
Completion: -4.53
